List of IC50 values.
Test system: cortisol production, rabbit adrenal cultured cells
experiment description: In vitro inhibition of cortisol production (ACTH-stimulated rabbit adrenal cultured cells)
Format: cell-based
condition: Oryctolagus cuniculus
measurement label: IC50

>  <compound structure string>
N#Cc1ccc(N(Cc2ccc(Br)cc2)n2cnnc2)cc1

>  <result>
4 µM

$$$$
>  <compound structure string>
O=[N+]([O-])c1ccc(CN(c2ccc([N+](=O)[O-])cc2)n2cnnc2)cc1

>  <result>
7 µM

$$$$

----------
assayed target: aromatase from human placental microsomes (Homo sapiens)
Construct: in human placenta microsomes; from tissue; host or cells: human placenta, microsomes
Sequence (P11511 1-503): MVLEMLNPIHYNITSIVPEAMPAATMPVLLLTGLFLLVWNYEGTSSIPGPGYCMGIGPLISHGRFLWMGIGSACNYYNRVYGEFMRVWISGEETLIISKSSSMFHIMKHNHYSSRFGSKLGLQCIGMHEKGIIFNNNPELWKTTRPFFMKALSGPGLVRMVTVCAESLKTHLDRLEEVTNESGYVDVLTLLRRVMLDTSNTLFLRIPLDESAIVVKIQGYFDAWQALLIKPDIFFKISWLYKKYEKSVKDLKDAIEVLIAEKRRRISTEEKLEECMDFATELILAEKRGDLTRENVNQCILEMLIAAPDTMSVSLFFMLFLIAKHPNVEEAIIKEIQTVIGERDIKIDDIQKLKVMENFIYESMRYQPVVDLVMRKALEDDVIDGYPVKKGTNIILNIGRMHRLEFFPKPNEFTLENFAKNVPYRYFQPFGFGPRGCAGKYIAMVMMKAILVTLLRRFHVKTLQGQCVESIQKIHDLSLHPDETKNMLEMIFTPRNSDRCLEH
experiment description: In vitro inhibition of aromatase in human placenta microsomes
Assay type: biochemical
condition: [1,2-3H] androstenedione
Measured IC50, listed per entry.

>  <compound structure string>
O=[N+]([O-])c1ccc(N(Cc2ccc(Br)cc2)n2cnnc2)cc1

>  <readout unit>
nM

>  <IC50>
0.03

$$$$
>  <compound structure string>
O=[N+]([O-])c1ccc(CN(c2ccc([N+](=O)[O-])cc2)n2cnnc2)cc1

>  <readout unit>
nM

>  <IC50>
0.11

$$$$
>  <compound structure string>
N#Cc1ccc(N(Cc2ccc(Br)cc2)n2cnnc2)cc1

>  <readout unit>
nM

>  <IC50>
0.13

$$$$

----------
experiment description: Metabolism: plasma concentration of the non-changed compound after oral administration to rats
Type: in vivo
condition: rat, 3 mg/kg oral, read-out: maximum value (Cmax) of the concentration of the non-changed compound in the plasma
measurement label: Cmax (ng/mL)

>  <compound>
N#Cc1ccc(N(Cc2ccc(Br)cc2)n2cnnc2)cc1 [Example 15]

>  <measured number>
2880

$$$$

----------
experiment description: Metabolism: plasma concentration of the non-changed compound after oral administration to rats
Assay type: in vivo
condition: rat, 3 mg/kg oral, read-out: extinction half time (T1/2) (converted)

>  <compound structure string>
N#Cc1ccc(N(Cc2ccc(Br)cc2)n2cnnc2)cc1

>  <readout unit>
h

>  <half-life>
11

$$$$
